Measured values drawn from ChEMBL document CHEMBL2062441 for this set.

RUN_DESCRIPTION: Tmax in human at 400 mg administered as single dose
EXPERIMENTAL_CONTEXT: in vivo
RECORDED_METRIC: Tmax (h)
Provide only the numeric value, understood in h.

Using known records, supply Tmax for `CCOc1noc2cc(OCCC3CCN(c4ccc(C)nn4)CC3)ccc12`
1.03

###

RUN_DESCRIPTION: in vivo
EXPERIMENTAL_CONTEXT: male, Lister hooded, rat, po, 50 mg/kg
Description: Oral bioavailability in male lister hooded rat at 50 mg/kg administered as single dose
RECORDED_METRIC: bioavailability (%)
Just the number in %, nothing appended.

Given the compound CCOc1noc2cc(OCCC3CCN(c4ccc(C)nn4)CC3)ccc12 [VAPENDAVIR] , write its reported bioavailability.
94

###

RUN_DESCRIPTION: in vivo
EXPERIMENTAL_CONTEXT: male, Lister hooded, rat, plasma, po, 50 mg/kg
Description: AUC in male lister hooded rat at 50 mg/kg, po
RECORDED_METRIC: AUC (µg·h/mL)
Reply numerically in µg·h/mL, unit not repeated.

Kindly indicate its recorded AUC. Item: CCOc1noc2cc(OCCC3CCN(c4ccc(C)nn4)CC3)ccc12 [VAPENDAVIR]
483

###

RUN_DESCRIPTION: in vivo
EXPERIMENTAL_CONTEXT: female, Lister hooded, rat, po, 50 mg/kg
Description: Cmax in female lister hooded rat at 50 mg/kg, po
RECORDED_METRIC: Cmax (ng/mL)
Your answer should be a plain number; it is taken to be in ng/mL.

Write down Cmax measured for item CCOc1noc2cc(OCCC3CCN(c4ccc(C)nn4)CC3)ccc12 [VAPENDAVIR]
17700

###

RUN_DESCRIPTION: Half life in human at 400 mg administered as single dose
EXPERIMENTAL_CONTEXT: in vivo
RECORDED_METRIC: half-life
Quote the value and follow it with the unit of measurement.

Look up and state reported half-life for `CCOc1noc2cc(OCCC3CCN(c4ccc(C)nn4)CC3)ccc12`
11.8 h

###

RUN_DESCRIPTION: in vivo
EXPERIMENTAL_CONTEXT: female, Lister hooded, rat, po, 50 mg/kg
Description: Tmax in female lister hooded rat at 50 mg/kg, po
RECORDED_METRIC: Tmax (h)
// return numeric value only (unit: h, not printed)

Name the recorded Tmax of the molecule listed here: `CCOc1noc2cc(OCCC3CCN(c4ccc(C)nn4)CC3)ccc12`
11.2

###

RUN_DESCRIPTION: in vivo
EXPERIMENTAL_CONTEXT: male, beagle, dog, plasma, po, 50 mg/kg
Description: AUC in male beagle dog at 50 mg/kg, po
RECORDED_METRIC: AUC (µg·h/mL)
Entry rule: numbers only, all in µg·h/mL.

State its AUC for this compound: `CCOc1noc2cc(OCCC3CCN(c4ccc(C)nn4)CC3)ccc12`
202

###

RUN_DESCRIPTION: in vivo
EXPERIMENTAL_CONTEXT: female, Lister hooded, rat, plasma, po, 50 mg/kg
Description: AUC in female lister hooded rat at 50 mg/kg, po
RECORDED_METRIC: AUC (µg·h/mL)
# unit: µg·h/mL | format: bare number

Please indicate AUC recorded for CCOc1noc2cc(OCCC3CCN(c4ccc(C)nn4)CC3)ccc12 [VAPENDAVIR]
489
